Sourced from PubChem BioAssay AID686920

- Tested on: A673 NR0B1-luciferase reporter, viability-normalised luminescence
- protocolSummary: suppressors of NR0B1-promoter luciferase reporter, dose response, EWS/Fli inhibitor project, luciferase luminescence, A673 cells, cherry-pick (AID 686920)
Here the recorded AC35 is given for each entry.

Use these answered entries as a reference point.
- compound: "COC1C(O)C(C)OC(OC2CCC3(C)C(CCC4C3C(O)CC3(C)C(C5=CC(=O)OC5)CCC43O)C2)C1O (configuration not stated)"
  value: "0.183 µM"
- compound: "COc1ccc(C(=O)Nc2cccc(C(=O)N/N=C/c3ccc(OC)cc3OC)c2)cc1"
  value: "31.2 µM"
- compound: "COc1ccc(S(=O)(=O)Nc2ccc3c(c2)C(=O)N([C@H](C)CO)C[C@@H](C)[C@@H](CN(C)Cc2ccc(C(=O)Nc4ccccc4N)cc2)O3)cc1"
  value: "5.11 µM"
- compound: "C[C@@H]1CN([C@@H](C)CO)C(=O)Cc2cc(N(C)C)ccc2O[C@H]1CN(C)Cc1ccc(C(=O)Nc2ccccc2N)cc1"
  value: "11.4 µM"
- compound: "COc1cc(-c2cnc3c(NC=O)cc(-c4cccc(NC(C)=O)c4)cn23)cc(OC)c1OC"
  value: "0.298 µM"
- compound: "CCCCCCCCCCCCCCCCn1cc[n+](C)c1"
  value: "10.3 µM"
- compound: "CN=c1scc(-c2ccccc2F)n1/N=C/c1ccc[nH]1"
  value: "0.194 µM"
- compound: "CCNC(=O)c1cc2c(c(-c3cccc(-c4cccc(OC)c4)c3)n1)[C@H](CCO)N([S@@](=O)C(C)(C)C)C2"
  value: "6.78 µM"

Please report the recorded AC35 for `COc1ccc(/C=N/Nc2ccc(C(=O)O)cc2)cc1Br` .
3.93 µM

Please report the recorded AC35 for `CC(C)(C)c1ccc(Oc2ccc(N)cn2)cc1` .
1.2 µM

Please report the recorded AC35 for `O=C1NC(=S)NC(=O)C1=Cc1cccn1-c1ccc(O)cc1` .
19.9 µM

Please report the recorded AC35 for `O=c1[nH]c(/C=C2\C=Nc3ccccc32)c(O)n1Cc1ccccc1F` .
4.21 µM

Please report the recorded AC35 for `C[C@H](CO)N1C[C@H](C)[C@H](CN(C)Cc2ccc(Oc3ccccc3)cc2)Oc2ccc(NC(=O)CCCCCC(=O)Nc3ccccc3N)cc2CC1=O` .
4.15 µM

* * *

- Tested on: A673 NR0B1-luciferase reporter, viability-normalised luminescence
- protocolSummary: suppressors of NR0B1-promoter luciferase reporter, dose response, EWS/Fli inhibitor project, luciferase luminescence, A673 cells, cherry-pick (AID 686920)
Here the recorded AC35 is given for each entry.

- compound: "CCCN1C/C(=C/c2ccc3c(c2)OCO3)C(=O)/C(=C/c2ccc3c(c2)OCO3)C1"
  AC35: "3.4 µM"
- compound: "CN(CCO)c1ccc(/C=N/Nc2nncc3ccccc23)cc1"
  AC35: "5.2 µM"
- compound: "C[C@H]1CN([C@@H](C)CO)C(=O)Cc2cc(NC(=O)CCCCCC(=O)Nc3ccccc3N)ccc2O[C@H]1CN(C)Cc1ccc(Oc2ccccc2)cc1"
  AC35: "5.63 µM"
- compound: "Cc1ccc(/C=N/Nc2ccc3ccccc3n2)o1"
  AC35: "4.21 µM"
- compound: "COc1cccc(CN2CCC2(C)C(=O)Nc2cccc3cccnc23)c1F (stereo not given)"
  AC35: "14.7 µM"

Please report the recorded AC35 for `C[C@H](CO)N1C[C@H](C)[C@H](CN(C)CC2CCCCC2)Oc2ccc(NC(=O)Nc3cccc4ccccc34)cc2C1=O` .
43.3 µM

Please report the recorded AC35 for `N#C[C@H]1N[C@H](CO)[C@H]1c1ccc(C#Cc2ccc(F)cc2)cc1` .
0.123 µM

Please report the recorded AC35 for `O=C(O)c1ccc(N/N=C/c2ccc3c(c2)OCO3)cc1` .
0.644 µM

Please report the recorded AC35 for `Cc1c(CC(=O)NCCCC(=O)O)c(=O)oc2cc3c(cc12)CCC(C)(C)O3` .
2.74 µM

Please report the recorded AC35 for `Cc1ccsc1C(=O)OCC(=O)c1cc(C)n(C)c1C` .
6.2 µM

Please report the recorded AC35 for `Cc1cc(C)cc(C(=O)NC(=S)Nc2ccc(Cc3ccncc3)cc2)c1` .
7.99 µM

Please report the recorded AC35 for `COc1ccc(Nc2oc(COc3ccccc3OC)nc2C#N)cc1` .
6.24 µM

Please report the recorded AC35 for `CN1c2ccc(-c3ccc(C#N)cc3)cc2[C@H]2[C@H](CCN2S(=O)(=O)c2cccc(F)c2)[C@H]1CO` .
1.74 µM

Please report the recorded AC35 for `O=c1cc(-c2ccccc2)oc2ccc3ccccc3c12` .
1.43 µM

Please report the recorded AC35 for `C=C1C(=O)O[C@@H]2[C@H]1[C@@H](OC(=O)/C(C)=C/C)C/C(C)=C\C(=O)/C=C(\C)[C@@H]2O` .
8.09 µM

* * *

Here the recorded AC35 is given for each entry.
- Test system: A673 NR0B1-luciferase reporter, viability-normalised luminescence
- protocolSummary: suppressors of NR0B1-promoter luciferase reporter, dose response, EWS/Fli inhibitor project, luciferase luminescence, A673 cells, cherry-pick (AID 686920)

- compound: "N#CC(C#N)=C1C=CC=CN1/C(=C\\c1ccco1)C(=O)c1ccc(Cl)cc1"
  AC35: "7.6 µM"
- compound: "CN=c1scc(-c2cccs2)n1/N=C/c1ccccc1O"
  AC35: "0.298 µM"
- compound: "CCn1c(C)cc(C(=O)CN2C(=O)c3ccccc3S2(=O)=O)c1C"
  AC35: "1.23 µM"

Please report the recorded AC35 for `C[C@H](CO)N1C[C@H](C)[C@H](CN(C)CC2CCCCC2)Oc2ccc(NC(=O)CCCCCC(=O)Nc3ccccc3N)cc2CC1=O` .
4.96 µM

Please report the recorded AC35 for `Cc1cc(-c2nc3cc(F)ccc3s2)ccc1N` .
8.89 µM

Please report the recorded AC35 for `O=c1ccc2ccccc2c2ccccc12` .
8.15 µM

Please report the recorded AC35 for `CC1=NN(c2ccc(C)cc2)C(=O)/C1=C\C=C\c1ccccc1` .
10.2 µM

Please report the recorded AC35 for `COc1ccccc1NC(=O)N1CCCCN2[C@H](CO)[C@H](c3ccc(-c4cccc(C)c4)cc3)[C@H]2C1` .
8.3 µM

Please report the recorded AC35 for `Cc1ccc2c(c1)C(=O)N1[C@H]3c4cc(Br)ccc4OC[C@@H]3[C@H](c3ccccc3)[C@]1(C)C(=O)N2` .
13.7 µM

Please report the recorded AC35 for `CC(=NNc1cc(C)c2ccccc2n1)c1ccccn1` .
8.23 µM

Please report the recorded AC35 for O=C(NC(c1ccc(F)cc1)c1ccc2ccccc2n1)C1CCN(Cc2cccc(C(F)(F)F)c2)CC1 (stereo unspecified) .
7.77 µM

* * *

Here the recorded AC35 is given for each entry.
- Tested on: A673 NR0B1-luciferase reporter, viability-normalised luminescence
- protocolSummary: suppressors of NR0B1-promoter luciferase reporter, dose response, EWS/Fli inhibitor project, luciferase luminescence, A673 cells, cherry-pick (AID 686920)

Use these answered entries as a reference point.
- molecule: "CNC[C@H](CC1CCCCC1)NC[C@H](CO)NCCc1cccc(C(F)(F)F)c1"
  value: "13.7 µM"
- molecule: "CC(C)(C)c1ccc(Oc2ccc(NC(=O)C3CC=CCC3C(=O)O)cc2)cc1 (stereo not drawn)"
  value: "40.5 µM"
- molecule: "CCN1CCN(/C=N/c2nc3c(s2)CCCC3)CC1"
  value: "7.97 µM"
- molecule: "CC1(C(=O)NCc2ccco2)Cc2c(-c3cccc(C(N)=O)c3)ccnc2O1 (stereo not drawn)"
  value: "5.37 µM"
- molecule: "C[C@@H]1O[C@@H](O[C@@H]2C=C3CCC4C(CC[C@]5(C)[C@@H](c6ccc(=O)oc6)CC[C@]45O)[C@@]3(C)CC2)[C@H](O)[C@H](O)[C@H]1O (stereo partly drawn)"
  value: "< 0.09 µM"

Report AC35 for `C[C@@H]1CN([C@@H](C)CO)C(=O)c2cccc(NC(=O)CCCCCC(=O)Nc3ccccc3N)c2O[C@@H]1CN(C)Cc1ccc(Oc2ccccc2)cc1` tested on A673 NR0B1-luciferase reporter, viability-normalised luminescence.
6.74 µM

Report AC35 for `Nc1nc(=S)c2[nH]cnc2[nH]1` tested on A673 NR0B1-luciferase reporter, viability-normalised luminescence.
2.5 µM

Report AC35 for `NC1=CC(=O)C(=O)c2cccnc21` tested on A673 NR0B1-luciferase reporter, viability-normalised luminescence.
14 µM

Report AC35 for `CC(=O)ON=C1C=CC(=C(C#N)c2ccccc2)C=C1` tested on A673 NR0B1-luciferase reporter, viability-normalised luminescence.
13.3 µM

Report AC35 for `C(=N\Nc1ccc2ccccc2n1)/c1ccc2c(c1)OCO2` tested on A673 NR0B1-luciferase reporter, viability-normalised luminescence.
5.76 µM

Report AC35 for `CCOc1ccc(-c2cc(CCCC(=O)N3CCN(c4ccc(OC)cc4)CC3)no2)cc1` tested on A673 NR0B1-luciferase reporter, viability-normalised luminescence.
27.6 µM

Report AC35 for `COc1ccccc1/C=C1\SC(=S)N(CCC(=O)Nc2cc(C)on2)C1=O` tested on A673 NR0B1-luciferase reporter, viability-normalised luminescence.
16.8 µM

Report AC35 for `O=C1/C(=C\c2ccccc2)CN(C(=O)CCN2CCCCC2)C/C1=C/c1ccccc1` tested on A673 NR0B1-luciferase reporter, viability-normalised luminescence.
2.54 µM

Report AC35 for C[C@]12CC[C@H](O)C[C@H]1CC[C@@H]1C2CC[C@]2(C)[C@@H](C3=CC(=O)OC3)[C@@H](O)C[C@]12O (stereo partly drawn) tested on A673 NR0B1-luciferase reporter, viability-normalised luminescence.
2.86 µM

Report AC35 for `COc1ccc(C(=O)CN2C(=O)c3ccccc3S2(=O)=O)cc1` tested on A673 NR0B1-luciferase reporter, viability-normalised luminescence.
0.279 µM

Report AC35 for `Cc1c(Cl)cccc1NC(=O)CCC(=O)N/N=C/c1ccc[nH]1` tested on A673 NR0B1-luciferase reporter, viability-normalised luminescence.
4.78 µM

Report AC35 for `C[C@H](CO)N1C[C@H](C)[C@H](CN(C)Cc2ccc(C(=O)Nc3ccccc3N)cc2)Oc2ccc(NC(=O)C3CC3)cc2CC1=O` tested on A673 NR0B1-luciferase reporter, viability-normalised luminescence.
37.8 µM

Report AC35 for Oc1c(C(c2ccc(Cl)cc2)N2CCCC2)cc(Cl)c2cccnc12 (stereo not drawn) tested on A673 NR0B1-luciferase reporter, viability-normalised luminescence.
9.79 µM

Report AC35 for `COc1ccc(NC(=O)c2cc3ccccc3oc2=O)cc1` tested on A673 NR0B1-luciferase reporter, viability-normalised luminescence.
2.99 µM

Report AC35 for `COc1ccccc1-c1ccc(OCCCN2CCC(C(O)(c3ccccc3)c3ccccc3)CC2)cc1` tested on A673 NR0B1-luciferase reporter, viability-normalised luminescence.
13.3 µM

Report AC35 for O=C(Nc1nc(-c2ccc(F)c(F)c2)cs1)c1ccc(OCC2CCCO2)cc1 (stereo not drawn) tested on A673 NR0B1-luciferase reporter, viability-normalised luminescence.
30 µM
